Molecular target: STING (Homo sapiens, UniProt Q86WV6, G230A/H232R/R293Q/R71H)
Construct: host or cells: THP1-Dual KO-IFNAR2 cells
Sequence (Q86WV6 whole entry R71H/G230A/H232R/R293Q): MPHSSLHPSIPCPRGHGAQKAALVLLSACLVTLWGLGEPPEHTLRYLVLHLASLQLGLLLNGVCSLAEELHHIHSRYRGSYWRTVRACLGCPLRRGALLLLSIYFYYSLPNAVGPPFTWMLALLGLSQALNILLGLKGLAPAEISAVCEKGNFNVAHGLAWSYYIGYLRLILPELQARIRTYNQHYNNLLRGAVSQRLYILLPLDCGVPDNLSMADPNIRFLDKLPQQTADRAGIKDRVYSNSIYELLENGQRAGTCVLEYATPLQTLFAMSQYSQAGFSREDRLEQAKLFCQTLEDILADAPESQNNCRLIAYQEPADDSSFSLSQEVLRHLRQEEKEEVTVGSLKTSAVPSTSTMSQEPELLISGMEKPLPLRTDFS
Assay: STING reporter assay: luciferase reporter activity in THP1-Dual KO-IFNAR2 cells stimulated with 2′3′cGAMP
Assay type: cell-based
Details: 15 μM 2′3′cGAMP, 24h, read-out: hSTING EC50
pEC50: −log10 of the molar value.
MEASURED QUANTITY: pEC50

• O=C(Nc1c[nH]c2ccc(-c3cnn(-c4ccc(C(F)(F)F)cc4)c3)cc12)c1cscn1 = 5.30 to 6.00
• CC1=NOC(C)(C(=O)Nc2c[nH]c3ccc(-c4cnn(-c5ccc(C(F)(F)F)cc5)c4)cc23)C1 (centres unmarked) = 4.00 to 5.30
• CC1(C(=O)Nc2c[nH]c3ccc(-c4cnn(-c5ccc(C(F)(F)F)cc5)c4)cc23)CCCO1 (centres unmarked) = 4.00 to 5.30
• CCc1ccc(-n2cc(-c3ccc4[nH]cc(NC(=O)COC)c4c3)cn2)cc1 = 6.70 to 7.40
• CC(=O)N1CCCC1C(=O)Nc1c[nH]c2ccc(-c3cnn(-c4ccc(C(F)(F)F)cc4)c3)cc12 (centres unmarked) = 5.30 to 6.00
• O=C(Nc1c[nH]c2ccc(-c3cnn(-c4ccc(C(F)(F)F)cc4)c3)cc12)c1ccc(=O)[nH]n1 = 5.30 to 6.00
• O=C(Nc1c[nH]c2ccc(-c3cnn(-c4ccc(C(F)(F)F)cc4)c3)cc12)C1CC(O)C1 (centres unmarked) = 6.00 to 6.70
• CCC(=O)Nc1c[nH]c2ccc(-c3cnn(-c4cnc(CC)cn4)c3)cc12 = 5.30 to 6.00
